Would you mind telling me the reported log p of each entry?
Test: log P (pH2.3)
Type: physicochemical
Conditions: method [b]: LC-MS, acidic range, pH 2.7, 0.1% aqueous formic acid and acetonitrile

A selection of reference data follows.
1) Cc1cc(C)n(CC(=O)N2CCC(c3nc(CCCC(C)c4ccccc4)cs3)CC2)n1 (stereo not drawn): 3.83^[b]
2) CC(C)c1cc(C(F)(F)F)n(CC(=O)N2CCC(c3nc(C#Cc4cccc5ccccc45)cs3)CC2)n1: 4.99^[b]
3) O=C(Cn1nc(C(F)F)cc1C(F)F)N1CCC(c2nc(CCc3cccc4ccccc34)cs2)CC1: 4.25^[b]
4) O=C(Cn1ccc(C(F)(F)F)n1)N1CCC(c2nc(/C=C\c3cccc(C(F)(F)F)c3)cs2)CC1: 4.3^[b]
5) Cc1cc(C)n(CC(=O)N2CCC(c3nc(/C=C/c4cccc(C(F)(F)F)c4)cs3)CC2)n1: 3.56^[b]

We now examine a further molecule.
Requested read-out: log p. Entry: Cc1c(Cl)c(C(F)(F)F)nn1CC(=O)N1CCC(c2nc(/C=C\c3ccc4ccccc4c3)cs2)CC1
5.08^[b]

* * *

Test: log P (pH2.3)
Assay type: physicochemical
Conditions: reversed-phase HPLC column (C18); method [c]: LC-MS, neutral range, pH 7.8, 0.001 molar aqueous ammonium bicarbonate and acetonitrile
reportedEndpoint: chromatographic logP
Answers are plain numbers.

I am curious: what chromatographic logP value has been reported for Cc1cc(C(F)(F)F)nn1CC(=O)N1CCC(c2nc(C#Cc3cccc4ccccc34)cs2)CC1 [Example I-50] ?
4.66

* * *

Test: log P (pH2.3)
Format: physicochemical
Settings: method [b]: LC-MS, acidic range, pH 2.7, 0.1% aqueous formic acid and acetonitrile; HPLC on reversed-phase C 18
Please respond with reported log p for every item in the list.

The cases that follow already have their log p on record.
1. Cc1ccccc1C#Cc1csc(C2CCN(C(=O)Cn3nc(C(F)(F)F)cc3C(F)(F)F)CC2)n1: 4.73^[b]
2. Cc1cc(C(F)(F)F)nn1CC(=O)N1CCC(c2nc(C=Cc3c(F)cccc3Cl)cs2)CC1 (mixture of isomers): 4.48^[b]
3. Cc1ccc(C)c(CC(=O)N2CCC(c3nc(/C=C\c4ccccc4C)cs3)CC2)c1: 4.86^[b]

# batch: return log p for each of the 4 molecules below
1. O=C(Cn1nc(C(F)(F)F)cc1C(F)(F)F)N1CCC(c2nc(C#Cc3c(F)cccc3F)cs2)CC1
2. Cc1ccc(C)c(CC(=O)N2CCC(c3nc(C#Cc4ccccc4C)cs3)CC2)c1
3. Cc1ccccc1C#Cc1csc(C2CCN(C(=O)Cc3cc(Cl)ccc3Cl)CC2)n1
4. O=C(Cn1nc(C(F)(F)F)cc1C(F)(F)F)N1CCC(c2nc(CCC3CCCCC3)cs2)CC1

1. 4.4^[b]
2. 4.75^[b]
3. 4.91^[b]
4. 5.76^[b]

* * *

Assign log p to each entry below.
Assay: log P (pH2.3)
Format: physicochemical
Conditions: method [b]: LC-MS, acidic range, pH 2.7, 0.1% aqueous formic acid and acetonitrile; HPLC on reversed-phase C 18

// below: answered compounds
1) Cc1cc(C(F)(F)F)nn1CC(=O)N1CCC(c2nc(C#Cc3c(F)cccc3F)cs2)CC1: 3.83^[b]
2) O=C(Cn1nc(C(F)F)cc1C(F)F)N1CCC(c2nc(CCC3CCCCC3)cs2)CC1: 4.87^[b]
3) Cc1noc(C)c1C#Cc1csc(C2CCN(C(=O)Cn3nc(C(F)F)cc3C(F)F)CC2)n1: 3.09^[b]
4) O=C(Cc1cc(Cl)ccc1Cl)N1CCC(c2nc(C#Cc3c(F)cccc3F)cs2)CC1: 4.52^[b]

Hi there! I need log p for each item below, if you can.
1. Cc1cccnc1C#Cc1csc(C2CCN(C(=O)Cc3cc(Cl)ccc3Cl)CC2)n1
2. O=C(Cn1nc(C(F)(F)F)cc1C(F)(F)F)N1CCC(c2nc(C=Cc3c(F)cccc3F)cs2)CC1 (mixture of isomers)
3. O=C(Cn1nc(C(F)F)cc1C(F)F)N1CCC(c2nc(CCC3CCCc4ccccc43)cs2)CC1 (stereo not shown)

["3.35^[b]", "4.88^[b]", "4.78^[b]"]

* * *

Would you mind telling me the reported chromatographic logP of each entry?
Assay: log P (pH2.3)
Assay type: physicochemical
Settings: reversed-phase HPLC column (C18); method [b]: LC-MS, acidic range, pH 2.7, 0.1% aqueous formic acid and acetonitrile
One number for each entry.

See these solved cases before continuing.
1. O=C(c1cc(C(F)(F)F)ccc1C(F)(F)F)N1CCC(c2nc(CCc3ccccc3)cs2)CC1: 4.67
2. Cc1cc(C(F)(F)F)nn1CC(=O)N1CCC(c2nc(C#C[Si](C)(C)C)cs2)CC1: 4.28
3. Cc1cc(C(F)(F)F)nn1CC(=O)N1CCC(c2nc(C#Cc3cccnc3)cs2)CC1: 2.68
4. COc1ccc(CCC(=O)N2CCC(c3nc(CCc4ccccc4)cs3)CC2)cc1OC: 3.43
5. Cc1cc(C(F)(F)F)nn1CC(=S)N1CCC(c2nc(/C=C/c3ccccc3)cs2)CC1: 4.65

The following compounds each have a reported value; give each one's chromatographic logP.
1. Cc1cc(C(F)(F)F)nn1CC(=O)N1CCC(c2nc(/C=C\c3cccc4ccccc34)cs2)CC1
2. Cc1cc(C(F)(F)F)nn1CC(=O)N1CCC(c2nc(C#CCc3ccccc3)cs2)CC1
3. Cc1cc(C(F)(F)F)nn1CC(=O)N1CCC(c2nc(/C=C/c3cccc4ccccc34)cs2)CC1
4. Cc1cc(C(F)(F)F)nn1CC(=O)N1CCC(c2nc(CCc3ccccc3)c(Br)s2)CC1
5. CCCCC(=O)N1CCC(c2nc(CCc3ccccc3)cs2)CC1
6. Cc1cc(C(F)(F)F)nn1CC(=O)N1CCC(c2nc(CCCC(C)c3ccccc3)cs2)CC1 (stereo not shown)

4.52
3.88
4.63
4.71
3.73
4.77

* * *

Assay: log P (pH2.3)
Format: physicochemical
Details: method [b]: LC-MS, acidic range, pH 2.7, 0.1% aqueous formic acid and acetonitrile
reportedEndpoint: log p

Consider the worked cases shown below.
1. Cc1cc(C(F)(F)F)nn1CC(=O)N1CCC(c2nc(C#Cc3ccccc3Cl)cs2)CC1: 4.12^[b]
2. CC(C)(C)c1cc(C(F)(F)C(F)(F)F)n(CC(=O)N2CCC(c3nc(CCc4cccc5ccccc45)cs3)CC2)n1: 5.78^[b]
3. O=C(c1cccc(C(F)(F)F)c1)N1CCC(c2nc(CCc3ccccc3)cs2)CC1: 4.23^[b]

// next item, log p requested
What value of log p has been reported for the following compound? CCc1cc(CC)n(CC(=O)N2CCC(c3nc(CCc4cccc5ccccc45)cs3)CC2)n1
4.04^[b]

* * *

Experiment: log P (pH2.3)
Type: physicochemical
Settings: method [b]: LC-MS, acidic range, pH 2.7, 0.1% aqueous formic acid and acetonitrile
reportedEndpoint: log p

1) CC(C)(C)c1cc(C(F)(F)F)nn1CC(=O)N1CCC(c2nc(CCc3cccc4ccccc34)cs2)CC1: 5.14^[b]
2) CC(C)(C)c1cc(C(F)(F)F)nn1CC(=O)N1CCC(c2nc(C#Cc3cccc4ccccc34)cs2)CC1: 5.14^[b]
3) Cc1cc(C)n(CC(=O)N2CCC(c3nc(/C=C/c4cccc5ccccc45)cs3)CC2)n1: 3.58^[b]
4) Cc1cc(C(F)(F)F)nn1CC(=O)N1CCC(c2nc(/C=C\c3cccc(C(F)(F)F)c3)cs2)CC1: 4.51^[b]
5) O=C(Cn1nc(C(F)(F)F)cc1C(F)(F)F)N1CCC(c2nc(CCc3cccc4ccccc34)cs2)CC1: 4.89^[b]
6) Cc1cc(C)n(CC(=O)N2CCC(c3nc(/C=C\c4cccc5ccccc45)cs3)CC2)n1: 3.73^[b]
7) COc1ccc(C#Cc2csc(C3CCN(C(=O)Cn4nc(C(F)(F)F)cc4C)CC3)n2)c(OC)c1: 3.67^[b]
8) O=C(Cc1cccc(Cl)c1)N1CCC(c2nc(CCc3ccccc3)cs2)CC1: 4.1^[b]

Return reported log p values for all items listed beneath this line.
1. CC(C(=O)N1CCC(c2nc(CCc3ccccc3)cs2)CC1)n1ccc(C(F)(F)F)n1 (stereo not shown)
2. Cc1cc(C(F)(F)F)nn1CC(=O)N1CCC(c2nc(C#Cc3ccccc3)cs2)CC1

1: 3.93^[b]; 2: 3.82^[b]

Dear reader, for each entry below, please note its log p.
1. Cc1cc(C(F)(F)F)nn1CC(=O)N1CCC(c2nc(CCc3c(F)cccc3F)cs2)CC1
2. O=C(Cn1ccc(C(F)(F)F)n1)N1CCC(c2nc(/C=C\c3ccccc3)cs2)CC1
3. Cc1c(Cl)c(C(F)(F)F)nn1CC(=O)N1CCC(c2nc(/C=C\c3cccc4ccccc34)cs2)CC1
4. COc1ccc(/C=C\c2csc(C3CCN(C(=O)Cn4nc(C(F)(F)F)cc4C)CC3)n2)cc1
5. Cc1cc(C(F)(F)F)nn1CC(=O)N1CCC(c2nc(C#Cc3ccc(Cl)cc3)cs2)CC1
6. Cc1cc(C(F)(F)F)nn1CC(=O)N1CCC(c2nc(/C=C\c3ccccc3)cs2)CC1
7. Cc1c(Cl)c(C(F)(F)F)nn1CC(=O)N1CCC(c2nc(/C=C\c3ccccc3)cs2)CC1

3.9^[b]
3.72^[b]
5.14^[b]
3.9^[b]
4.37^[b]
3.91^[b]
4.56^[b]
